- System name: EGFR (Homo sapiens)
- Construct: The intracellular portion of EGFR started at nucleotide 2189 (corresponding to amino acid 667) and ended at the termination codon
- Sequence (P00533 669-1210 limits assumed): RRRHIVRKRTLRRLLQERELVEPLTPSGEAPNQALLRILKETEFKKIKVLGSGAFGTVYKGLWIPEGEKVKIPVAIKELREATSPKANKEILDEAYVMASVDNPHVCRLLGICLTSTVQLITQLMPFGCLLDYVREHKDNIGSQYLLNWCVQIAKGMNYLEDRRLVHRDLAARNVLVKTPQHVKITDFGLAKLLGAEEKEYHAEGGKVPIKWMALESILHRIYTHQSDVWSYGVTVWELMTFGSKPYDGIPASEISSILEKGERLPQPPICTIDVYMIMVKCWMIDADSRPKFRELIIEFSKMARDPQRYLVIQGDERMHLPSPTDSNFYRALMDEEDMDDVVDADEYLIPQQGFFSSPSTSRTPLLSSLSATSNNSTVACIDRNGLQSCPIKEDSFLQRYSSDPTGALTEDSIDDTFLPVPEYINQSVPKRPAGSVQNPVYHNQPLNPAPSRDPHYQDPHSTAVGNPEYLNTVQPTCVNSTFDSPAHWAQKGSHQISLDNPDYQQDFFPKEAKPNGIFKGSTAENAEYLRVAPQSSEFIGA
- Assay remarks: EGFR Kinase Assay
- Conditions: GST-EGFR, ATP 5 μM
pIC50: −log10 of the molar value.
Class y: pIC50 at least 7. Class n: pIC50 below 7.

hey, is pIC50 for this one >= 7? CCOC(=O)c1sc2ncnc3c2c1NC(=O)N3c1ccc(Sc2ccccc2)cc1 [Cpd 210]
n

Kindly determine if pIC50 recorded for C#Cc1cccc(N2C(=O)Nc3c(C(=O)Nc4ccc(CN5CCCC5)cc4)sc4ncnc2c34)c1 [Cpd 15] is above or exactly 7.
y

Check the entry O=C(Nc1ccc(CN2CCOCC2)cc1)c1sc2ncnc3c2c1NC(=O)N3c1ccc(Cl)cc1Cl [Cpd 29] : does pIC50 equal or exceed 7?
n

hey, is pIC50 for this one >= 7? Cc1ccc(N2C(=O)Nc3c(C(=O)Nc4ccc(CN5CCCCC5)cc4)sc4ncnc2c34)cc1Br [Cpd 111]
y

# check: pIC50 of COc1cc(N2C(=O)Nc3c(C(=O)Nc4ccc(CN5CCCCC5)cc4)sc4ncnc2c34)c(Cl)c(OC)c1OC [Cpd 26] is greater than or equal to 7
n

API: above_or_equal(metric=pIC50, cutoff=7) for item COc1ccc(NC(=O)c2sc3ncnc4c3c2NC(=O)N4c2ccc(Br)cc2F)cc1OC [Cpd 37]
n

Tell me whether pIC50 is at least 7 here: CC(C)(C)OC(=O)N1CCC(NC(=O)c2sc3ncnc4c3c2NC(=O)N4c2ccc3c(ccn3Cc3cccc(F)c3)c2)CC1 [Cpd 91]
n

In plain terms: is recorded pIC50 at least 7 for CN1CCCC(COc2ccc(NC(=O)c3sc4ncnc5c4c3NC(=O)N5c3ccc(Cl)cc3Cl)cc2)C1 (stereo not shown) [Cpd 32] ?
n

Entry O=C(Nc1ccc(CN2CCCCC2)cc1)c1sc2ncnc3c2c1NC(=O)N3c1ccc(F)c(Br)c1 [Cpd 155] : is its pIC50 no less than 7?
y

Check the entry COc1ccc(N2C(=O)Nc3c(C(=O)Nc4ccc(CN5CCOCC5)cc4)sc4ncnc2c34)cc1Br [Cpd 181] : does pIC50 equal or exceed 7?
n

----------
- System name: c-Src kinase (human) (Homo sapiens, UniProt P12931)
- Construct: purchased Upstate Biotechnology, Lake Placid, N.Y
- Sequence (P12931 whole entry): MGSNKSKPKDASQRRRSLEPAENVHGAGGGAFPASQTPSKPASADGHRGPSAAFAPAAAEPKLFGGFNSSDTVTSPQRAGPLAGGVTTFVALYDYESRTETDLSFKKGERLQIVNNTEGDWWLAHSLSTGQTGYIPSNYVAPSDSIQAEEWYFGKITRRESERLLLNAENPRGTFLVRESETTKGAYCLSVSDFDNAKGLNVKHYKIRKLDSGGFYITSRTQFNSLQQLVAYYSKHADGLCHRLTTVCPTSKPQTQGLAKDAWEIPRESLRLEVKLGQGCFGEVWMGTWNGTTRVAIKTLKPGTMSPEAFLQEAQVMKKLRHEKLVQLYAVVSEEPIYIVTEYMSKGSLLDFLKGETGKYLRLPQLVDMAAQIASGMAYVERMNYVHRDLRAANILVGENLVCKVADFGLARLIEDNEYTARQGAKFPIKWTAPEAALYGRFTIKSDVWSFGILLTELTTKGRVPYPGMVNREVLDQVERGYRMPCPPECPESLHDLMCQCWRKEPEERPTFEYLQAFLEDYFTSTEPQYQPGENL
- Assay remarks: c-Src Kinase Assay
- Format: biochemical
- Conditions: test concentration of 2 μM; multiple values are separate assay results
Quantity measured: inhibition at 2 µM
Give the value; after it, write the unit.

Supply measured inhibition at 2 µM of COc1cc(N2C(=O)Nc3c(C(=O)Nc4ccc(OCCN5CCOCC5)c(OC)c4)sc4ncnc2c34)c(Cl)cc1Cl in your reply.
23%

Given O=C(O)c1sc2ncnc3c2c1NC(=O)N3c1ccc2c(cnn2Cc2cccc(F)c2)c1 , respond with its inhibition at 2 µM.
-17%

Supply measured inhibition at 2 µM of COc1cc(NC(=O)c2sc3ncnc4c3c2NC(=O)N4c2ccc(Cc3ccccc3)cc2)ccc1OCCN1CCCCC1 in your reply.
26%

Read the entry O=C(Nc1ccc(CN2CCCCC2)cc1)c1sc2ncnc3c2c1NC(=O)N3c1ccc(Oc2ccccc2)c(Cl)c1 and write its reported inhibition at 2 µM.
12%

# return recorded inhibition at 2 µM for entry Cc1ccc(-n2nc(C(C)(C)C)cc2N2C(=O)Nc3c(C(=O)Nc4ccc(CN5CCOCC5)cc4)sc4ncnc2c34)cc1
43%

Please give the documented inhibition at 2 µM of O=C(NCCN1CCOCC1)c1sc2ncnc3c2c1NC(=O)N3c1ccc2c(ccn2Cc2cccc(F)c2)c1
41%

Identify the reported inhibition at 2 µM for the following entry. O=C(Nc1ccccc1)c1sc2ncnc3c2c1NC(=O)N3c1cccc(Br)c1
-3%

Report inhibition at 2 µM for COc1cc(NC(=O)c2sc3ncnc4c3c2NC(=O)N4c2ccc(Oc3ccccc3)cc2)ccc1OCCN1CCOCC1
35%

----------
Provide the reported IC50 of each item.
- System name: HER-2 (Homo sapiens)
- Construct: His6 with thrombin site (N)
- Sequence (P04626 679-1255): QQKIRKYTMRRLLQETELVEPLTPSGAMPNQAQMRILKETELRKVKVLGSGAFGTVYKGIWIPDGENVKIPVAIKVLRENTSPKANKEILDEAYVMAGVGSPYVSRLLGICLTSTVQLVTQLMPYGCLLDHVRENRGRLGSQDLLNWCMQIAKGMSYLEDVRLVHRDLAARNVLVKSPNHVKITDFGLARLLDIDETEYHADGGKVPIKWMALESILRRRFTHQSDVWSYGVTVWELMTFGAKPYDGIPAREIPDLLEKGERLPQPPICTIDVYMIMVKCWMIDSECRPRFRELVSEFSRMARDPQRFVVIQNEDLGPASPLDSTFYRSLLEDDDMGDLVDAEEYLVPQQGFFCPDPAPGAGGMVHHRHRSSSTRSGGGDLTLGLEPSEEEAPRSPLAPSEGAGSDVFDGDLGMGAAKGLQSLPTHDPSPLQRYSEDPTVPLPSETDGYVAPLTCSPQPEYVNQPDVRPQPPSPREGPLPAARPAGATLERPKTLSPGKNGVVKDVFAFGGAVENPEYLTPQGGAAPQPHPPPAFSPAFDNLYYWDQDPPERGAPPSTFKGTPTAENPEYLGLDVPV
- Assay remarks: HER-2 Kinase Assay
- Conditions: value in parentheses
Number only, in nM; omit the unit.

Entry O=C(Nc1ccc(CN2CCCCC2)cc1)c1sc2ncnc3c2c1NC(=O)N3c1ccc(F)cc1Cl needs its IC50 filled in; supply it.
4230

Entry Cc1ccc(Br)cc1N1C(=O)Nc2c(C(=O)Nc3ccc(CN4CCOCC4)cc3)sc3ncnc1c23 needs its IC50 filled in; supply it.
684

Return value of IC50 for input CN1CCN(Cc2ccc(NC(=O)c3sc4ncnc5c4c3NC(=O)N5c3ccc(OCc4ccccn4)c(Cl)c3)cc2)CC1 , no commentary.
503

Return the recorded IC50 value; entry: O=C(Nc1ccc(CN2CCOCC2)cc1)c1sc2ncnc3c2c1NC(=O)N3c1ccc(Oc2ccc(F)cc2)cc1
161

Give IC50 for O=C(O)c1sc2ncnc3c2c1NC(=O)N3c1ccc(Oc2ccccc2)c(F)c1
5060

Supply reported IC50 belonging to this compound: O=C(Nc1ccc(CN2CCOCC2)cc1)c1sc2ncnc3c2c1NC(=O)N3c1ccc(Oc2ccccc2)c(Cl)c1
178

Provide measured IC50 value, entry: CN(C)CCCNC(=O)c1sc2ncnc3c2c1NC(=O)N3c1ccc(Sc2ccccc2)cc1
168

Using the record for O=C(Nc1ccc(NCCCN2CCOCC2)nc1)c1sc2ncnc3c2c1NC(=O)N3c1cccc(Br)c1 , state its measured IC50.
447

Give the reported IC50 for this compound. COC1CCN(Cc2ccc(NC(=O)c3sc4ncnc5c4c3NC(=O)N5c3ccc(Oc4ccccc4)cc3)cc2)CC1
11

Report measured IC50; entry is COc1ccc(N2C(=O)Nc3c(C(=O)Nc4ccc(OCCN5CCOCC5)c(OC)c4)sc4ncnc2c34)c(F)c1
965

Give IC50 for O=C(Nc1ccc(CN2CCC(O)CC2)cc1)c1sc2ncnc3c2c1NC(=O)N3c1ccc(Oc2ccccc2)cc1
9

// fetch IC50 given entry CN1CCC(NC(=O)c2sc3ncnc4c3c2NC(=O)N4c2ccc3nc(Cc4cccc(F)c4)[nH]c3c2)CC1
5770

Provide IC50 value for the following compound: O=C(Nc1ccc(CN2CCOCC2)cc1)c1sc2ncnc3c2c1NC(=O)N3c1ccc(Br)cc1
122

Read the entry O=C(Nc1ccc(CN2CCOCC2)cc1)c1sc2ncnc3c2c1NC(=O)N3c1ccc(Cl)cc1Cl and write its reported IC50.
884

----------
Record form. Attribute: inhibition at 1 µM. Fill in for each entry.
- System name: HER-2 (Homo sapiens)
- Construct: His6 with thrombin site (N); purchased Proqinase (Freiburg, Germany)
- Assay remarks: HER-2 Kinase Assay
- Assay type: biochemical
- Conditions: test concentration of 1 μM
Number only, in %; omit the unit.

Using the record for Cc1cccc(Cl)c1N1C(=O)Nc2c(C(=O)Nc3ccc(CN4CCCCC4)cc3)sc3ncnc1c23 , state its measured inhibition at 1 µM.
17

Given Cc1ccc(-n2nc(C(C)(C)C)cc2N2C(=O)Nc3c(C(=O)Nc4ccc(CN5CCOCC5)cc4)sc4ncnc2c34)cc1 , respond with its inhibition at 1 µM.
-11

Return inhibition at 1 µM (reported value) for this compound: CN1CCN(Cc2ccc(NC(=O)c3sc4ncnc5c4c3NC(=O)N5c3cc(OCc4cccc(F)c4)c(Cl)cc3Cl)cc2)CC1
-11

Specify measured inhibition at 1 µM for CN1CCN(Cc2ccc(NC(=O)c3sc4ncnc5c4c3NC(=O)N5c3ccccc3Cl)cc2)CC1 .
29

Entry COc1cc(NC(=O)c2sc3ncnc4c3c2NC(=O)N4c2ccc(Oc3ccccc3)cc2)ccc1OCCN1CCCCC1 needs its inhibition at 1 µM filled in; supply it.
95

Provide inhibition at 1 µM value for the following compound: O=C(Nc1ccc(CN2CCOCC2)cc1)c1sc2ncnc3c2c1NC(=O)N3c1ccc(Br)cc1F
-13

Input CN1CCN(Cc2ccc(NC(=O)c3sc4ncnc5c4c3NC(=O)N5c3ccc(Oc4ccccc4)cc3)cc2)CC1 , output reported inhibition at 1 µM.
95

// Input: COc1ccc(Cl)c(N2C(=O)Nc3c(C(=O)Nc4ccc(OCCN5CCOCC5)c(OC)c4)sc4ncnc2c34)c1 . Output its inhibition at 1 µM only.
-5

Item O=C(NCCCO)c1sc2ncnc3c2c1NC(=O)N3c1ccc(F)c(Br)c1 : provide inhibition at 1 µM
12

Give me measured inhibition at 1 µM, please, for this compound: O=C(Nc1ccc(CN2CCCCC2)cc1)c1sc2ncnc3c2c1NC(=O)N3c1ccc(Oc2ccccc2)cc1
98

Give the reported inhibition at 1 µM for this compound. O=C(NCCCO)c1sc2ncnc3c2c1NC(=O)N3c1ccc(Oc2ccccc2)c(Cl)c1
48

Name the recorded inhibition at 1 µM of the compound listed here: C#Cc1cccc(N2C(=O)Nc3c(C(=O)Nc4ccc(CN5CCCC5)cc4)sc4ncnc2c34)c1
21

Kindly indicate its recorded inhibition at 1 µM. Item: O=C(Nc1ccc(CN2CCOCC2)cc1)c1sc2ncnc3c2c1NC(=O)N3c1cccc(Br)c1
60

Please list inhibition at 1 µM recorded for the compound O=C(Nc1ccc(CN2CCOCC2)cc1)c1sc2ncnc3c2c1NC(=O)N3c1ccc(OCc2ccccn2)c(Cl)c1
95

Hello, please tell me recorded inhibition at 1 µM for this one: COc1ccc(Cl)c(N2C(=O)Nc3c(C(=O)O)sc4ncnc2c34)c1
-28

Read the entry O=C(Nc1ccc(CN2CCOCC2)cc1)c1sc2ncnc3c2c1NC(=O)N3c1ccc(Oc2ccccc2)cc1 and write its reported inhibition at 1 µM.
97

Provide one value: measured inhibition at 1 µM of O=C(Nc1ccc(CN2CCCCC2)cc1)c1sc2ncnc3c2c1NC(=O)N3c1ccc(F)c(Cl)c1
59

Using known records, supply inhibition at 1 µM for O=C(Nc1ccc(CN2CCCCC2)cc1)c1sc2ncnc3c2c1NC(=O)N3c1ccc(F)c(Br)c1
88

Report measured inhibition at 1 µM; entry is COc1cc(N2C(=O)Nc3c(C(=O)O)sc4ncnc2c34)c(Cl)cc1Cl
-17

Give inhibition at 1 µM for the following compound: O=C(Nc1ccc(CN2CCOCC2)cc1)c1sc2ncnc3c2c1NC(=O)N3c1ccc(Oc2ccccc2)c(F)c1
83

Name the recorded inhibition at 1 µM of the item CN1CCN(Cc2ccc(NC(=O)c3sc4ncnc5c4c3NC(=O)N5c3ccc(F)c(Cl)c3)cc2)CC1 in your answer.
-1

Identify the reported inhibition at 1 µM for the following entry. COc1ccc(Cl)c(N2C(=O)Nc3c(C(=O)Nc4ccc(OC)c(OC)c4)sc4ncnc2c34)c1
-5

Provide inhibition at 1 µM value for the following compound: COc1ccc(Cl)cc1N1C(=O)Nc2c(C(=O)Nc3ccc(CN4CCCCC4)cc3)sc3ncnc1c23
4

Given the compound CN1CCCC(COc2ccc(NC(=O)c3sc4ncnc5c4c3NC(=O)N5c3ccc(Cl)cc3Cl)cc2)C1 (stereo not shown) , write its reported inhibition at 1 µM.
33

Note down inhibition at 1 µM recorded for CN1CCN(Cc2ccc(NC(=O)c3sc4ncnc5c4c3NC(=O)N5c3ccc(OCc4ccccn4)c(Cl)c3)cc2)CC1
82

Look up and state reported inhibition at 1 µM for COc1cc(N2C(=O)Nc3c(C(=O)Nc4ccc(CN5CCCCC5)cc4)sc4ncnc2c34)c(Cl)cc1Cl
14

Tell me measured inhibition at 1 µM for O=C(Nc1ccc(CN2CCOCC2)cc1)c1sc2ncnc3c2c1NC(=O)N3c1ccc(F)c(Br)c1 please.
70

Report inhibition at 1 µM, nothing else, for this compound: O=C(Nc1ccc(CCN2CCCCC2)cc1)c1sc2ncnc3c2c1NC(=O)N3c1ccc(Oc2ccccc2)c(F)c1
60

Read the entry O=C(Nc1ccc(CN2CCCCC2)cc1)c1sc2ncnc3c2c1NC(=O)N3c1ccc(F)cc1Cl and write its reported inhibition at 1 µM.
54

Complete the entry with inhibition at 1 µM for COc1cc(N2C(=O)Nc3c(C(=O)N4CCCC4)sc4ncnc2c34)c(Cl)cc1Cl
0

# return recorded inhibition at 1 µM for input COC(=O)c1sc2ncnc3c2c1NC(=O)N3c1c(Cl)ccc2c1OCO2
3
